- System: HOP-92 NSCLC
- assay name: NCI tumour cell line growth inhibition, 48 h; in the data active means GI50 below about 0.43 µM; inactive means the rest
Answer with one of the outcomes given here: T for active, F for inactive

IN: So what was the verdict on CNC(=O)c1cc(-n2ccc3cc(NC(=O)Nc4ccc(N5CCOCC5)c(C(F)(F)F)c4)ccc32)ccn1 in this test?
OUT: F

IN: // param item: C=C(C)C(=O)O[C@H]1C[C@@]2(C)OC(=CC2=O)/C(C)=C\[C@H]2OC(=O)C(=C)[C@H]12 ; yields the recorded call
OUT: F

IN: Lab log entry: CCn1c2ccc(/C=N/OCCCN(C)C)cc2c2cc(/C=N/OCCCN(C)C)ccc21 — outcome as called in the assay?
OUT: F

IN: What call does the record list for CCC(C)[C@H]1OC(=O)[C@H](C(C)C)N(C)C(=O)[C@@H](C(C)C)OC(=O)[C@H](C(C)C)N(C)C(=O)[C@@H](C(C)CC)OC(=O)[C@H](C(C)C)N(C)C1=O (some centres undefined) ?
OUT: T
